# assayText: chemical genetic growth profiling, strain panel (AID 1159580);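 also: tested at 20 µM; growth read once vehicle control cultures reached saturation at 30 °C; 1 = growth at the plate median or of vehicle wells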
# details: S. cerevisiae deletion strains, growth OD, strain NNK1
About 2,000 (36%) of roughly 5,500 compounds were called active. Another 18% or so got no clear call; they are omitted. Rule as the data show it: active = normalized growth mostly below about 0.91 (no sharp cut-off); inconclusive = no clear call, values can overlap the other calls; inactive = mostly above about 0.92. The list shows a part of the results.
Respond using exactly one of the listed classes: 1.0 for active, 0.0 for inactive

-- ask Could you please tell me the result logged for O/N=C(/c1ccc(Cl)cc1)c1cc2ccccc2o1 in this assay?
-- reply 0.0

-- ask Fill in: this test's call for CC(C)(C)C(=O)NC(=S)N/N=C\c1cc(Cl)cc(Cl)c1O is ___
-- reply 0.0

-- ask For CCOC(=O)N/N=C\c1cc(Cl)cc(Cl)c1O , which call appears in the assay record?
-- reply 0.0

-- ask Test call, this compound: CN(C)C=Nc1nnc(Sc2nc3c(Cl)cc(Cl)cc3s2)s1
-- reply 0.0

-- ask Record lookup: outcome of this test for Cc1cc(Cl)ccc1NNC(=O)c1sccc1Cl ?
-- reply 0.0

-- ask Outcome logged for COc1ccccc1NC(=S)N/N=C\c1ccccc1O in this assay:
-- reply 0.0

-- ask Outcome? O=C1Nc2ccccc2/C1=C\c1c(Cl)cccc1Cl
-- reply 0.0

-- ask Could you kindly confirm the outcome this assay logged for Cc1ccc(NNC(=O)c2cccs2)cc1Cl ?
-- reply 0.0

-- ask I'd appreciate the recorded outcome for c1ccc(-c2nnc(-c3ccccn3)nc2-c2ccccc2)cc1 from this test.
-- reply 1.0

-- ask So what was the verdict on Oc1c(Br)cc(Br)cc1C=Nc1ccc(Sc2ccccc2)nc1Sc1ccccc1 in this test?
-- reply 0.0

-- ask What call does the record list for OC(COc1ccc(F)cc1)(c1ccccc1)c1ccccc1 ?
-- reply 0.0

-- ask What did the test return for Cc1cc(Cl)ccc1NNC(=O)c1sccc1Br ?
-- reply 0.0

-- ask Tell me the assay call for Cc1c(C)c(C)c(C(O)c2ccccc2)c(C)c1C (centres undefined) please.
-- reply 0.0

-- ask Hi team, can someone confirm the assay call for O=C(NNc1ccc(F)cc1F)c1sccc1Cl ?
-- reply 0.0

-- ask Status in this test for O=S(=O)(CS(=O)(=O)Oc1ccc(Cl)c(Cl)c1)Oc1ccc(Cl)c(Cl)c1 ?
-- reply 0.0

-- ask Which outcome was assigned to CCNC(=S)N/N=C\c1cc(Cl)cc(Cl)c1O in this test?
-- reply 0.0

-- ask Name the outcome recorded for O=[N+]([O-])c1cc(Cl)cc([N+](=O)[O-])c1Nc1ccccc1 in the assay.
-- reply 0.0

-- ask Outcome logged for O=C1Nc2ccccc2/C1=C/c1ccc(Oc2ccccc2)nc1 in this assay:
-- reply 0.0

-- ask Record request — test call for COc1ccc(/C=C2/C(=O)Nc3ccccc32)cc1
-- reply 1.0

* * *

# assayText: chemical genetic growth profiling, strain panel (AID 1159580)
# details: S. cerevisiae deletion strains, growth OD, locus YMR205C, strain PFK2, active compounds read low
In all, about 5,500 compounds went through this assay and about 2,000 (36%) were called active. About 18% were inconclusive and are not listed. Some of the results follow.
Binarize normalized growth at 1; below is 1.0, at or above is 0.0.

Sample answers from the record:
compound	className
CC1(C)C2CC(=O)[C@]3(C)C(CC[C@@]4(C)[C@H](c5ccoc5)OC(=O)C5OC543)[C@@]2(C)[C@@H](O)C[C@H]1O (stereo partly drawn)	0.0
CC(CC(C(N)=O)(c1ccccc1)c1ccccc1)N(C)C (stereo not drawn)	1.0
CC(C)c1c(O)ccc2c1CCC1C(C)(C)CCC[C@]21C (stereo partly drawn)	1.0
CC(C1OC(C)(C)C(O)C1O)[C@@H]1CC[C@]2(C)C3=CCC4C(C)(C)C(=O)CC[C@]4(C)C3CC[C@@]12C (stereo partly drawn)	1.0

-- ask Would you kindly verify if normalized growth of CC(C)N(CCC(C(N)=O)(c1ccccc1)c1ccccn1)C(C)C (stereo not drawn) is strictly less than 1?
-- reply 1.0

* * *

# assayText: chemical genetic growth profiling, strain panel (AID 1159580)
# details: S. cerevisiae deletion strains, growth OD, locus YPL055C, strain LGE1, active compounds read low
Out of some 5,500 compounds screened, about 2,000 (36%) were called active. Not shown: some 18% with an inconclusive outcome. Some of the results follow.
Labelling field: enter 1 if recorded normalized growth is less than 1. Enter -1 if it equals or exceeds that cut-off.

Solved entries (count: 3):
molecule	className
CCOC(=O)c1sc(SC(C)C)c2c1CCCC2=O	-1
NC(=O)CN1CCCC1=O	1
CN1CC(C(=O)NC2(C)OC3(O)C4CCCN4C(=O)C(Cc4ccccc4)N3C2=O)CC2c3cccc4[nH]cc(c34)CC21 (configuration not stated)	1

Read the next record carefully.
-- ask Is 1 strictly greater than the molecule's reported normalized growth? molecule: CC[n+]1c(-c2ccccc2)c2cc(N)ccc2c2ccc(N)cc21
-- reply 1

* * *

Catalogue of molecules with associated normalized growth
# assayText: chemical genetic growth profiling, strain panel (AID 1159580);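 also: tested at 20 µM; growth read once vehicle control cultures reached saturation at 30 °C; 1 = growth at the plate median or of vehicle wells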
# details: S. cerevisiae deletion strains, growth OD, locus YNL153C, strain GIM3, active compounds read low
About 2,000 (36%) of roughly 5,500 compounds were called active. About 18% were inconclusive and are not listed. The list shows a part of the results.
Returns: the value as a bare number; no unit string appended.

molecule	normalized growth
CCCCOc1cc(C(=O)NCCN(CC)CC)c2ccccc2n1	0.994

-- ask Returns the measured normalized growth for the input molecule. Input: NS(=O)(=O)c1cc(C2(O)NC(=O)c3ccccc32)ccc1Cl (stereo unspecified)
-- reply 1.02

-- ask Form field: reported normalized growth of CC(=O)OC(C)C[N+](C)(C)C (stereo unspecified)
-- reply 1.01

-- ask Which normalized growth is listed for C[N+](C)(C)CC(O)CC(=O)O (stereo unspecified) ?
-- reply 1.01

-- ask Item CC1(C)C=CC(=O)[C@@]2(C)C1CC(=O)[C@]1(C)C2CC[C@@]2(C)[C@H](c3ccoc3)OC(=O)C3OC321 (stereo partly specified) has what recorded normalized growth?
-- reply 0.981

-- ask Name the recorded normalized growth for CC1(C)C2CC(=O)[C@]3(C)C(CC[C@@]4(C)[C@H](c5ccoc5)OC(=O)[C@H]5O[C@]543)[C@@]2(C)C(=O)C[C@H]1O (stereo partly specified) .
-- reply 1.04

-- ask Could you tell me which normalized growth is on file for O=C(Cc1cccs1)NC1C(=O)N2C(C(=O)[O-])=C(C[n+]3ccccc3)CSC12 (stereo unspecified) ?
-- reply 1.03

* * *

# assayText: chemical genetic growth profiling, strain panel (AID 1159580);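 also: tested at 20 µM; growth read once vehicle control cultures reached saturation at 30 °C; 1 = growth at the plate median or of vehicle wells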
# details: S. cerevisiae deletion strains, growth OD, locus YDR392W, strain spt3
Among all 5,500 compounds or so, about 2,000 (36%) were called active. Inconclusive results (about 18%) are left out. No stated cut-off is given here; in the data, active means normalized growth mostly below about 0.91 (no sharp cut-off); inconclusive means no clear call, values can overlap the other calls; inactive means mostly above about 0.92. Some of the results follow.
Write down the outcome that applies. Available outcomes: T (active), F (inactive)

Would you please look over these solved cases?
compound	className
CN(C)c1ccc2nc3ccc(=[N+](C)C)cc-3sc2c1	T
CC1(C)O[C@H]2CC(=O)OC[C@]23[C@H]2CC[C@@]4(C)[C@H](c5ccoc5)OC(=O)[C@H]5O[C@]54[C@]2(C)C(=O)C[C@@H]13	F
O=C(O[C@@H]1Cc2c(O)cc(O)cc2O[C@@H]1c1cc(O)c(=O)c2c(O)c(O)cc([C@H]3Oc4cc(O)cc(O)c4C[C@H]3OC(=O)c3cc(O)c(O)c(O)c3)c2c1)c1cc(O)c(O)c(O)c1	F
CC(C)N(CCC(C(N)=O)(c1ccccc1)c1ccccn1)C(C)C (stereo unspecified)	T
CC(C)[N+](C)(CCC(C(N)=O)(c1ccccc1)c1ccccc1)C(C)C	F

Pending compound:
-- ask Could you kindly confirm the outcome this assay logged for COc1cc(OC)c2c(=O)c(O)c(-c3ccc(OC)c(OC)c3)oc2c1 ?
-- reply F

* * *

# assayText: chemical genetic growth profiling, strain panel (AID 1159580);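 also: tested at 20 µM; growth read once vehicle control cultures reached saturation at 30 °C; 1 = growth at the plate median or of vehicle wells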
# details: S. cerevisiae deletion strains, growth OD, locus YPL055C, strain LGE1, active compounds read low
Screen size: about 5,500 compounds; about 2,000 (36%) were called active. Inconclusive results (about 18%) are left out. This is one part of the list.
I'd appreciate it if you marked entries true (1) when normalized growth is lower than 1 and false (0) when it is not.

These recorded examples may help you get a feel for the data.
compound	className
CCOC(=O)c1c(C)cc(O)cc1O	true (1)
C[C@@H]1CC[C@@]2(NC1)O[C@H]1C[C@H]3C4CC=C5C[C@@H](O)CC[C@]5(C)C4CC[C@]3(C)C1[C@@H]2C (some centres not stated)	true (1)
Cn1c2c(c3c1CCCC3)CCCC2	false (0)

-- ask Given the entry COC(=O)[C@]1(C)CCC[C@]2(C)c3ccc(C(C)C)cc3C(=O)CC12 (some centres not stated) , would its reported normalized growth be below 1?
-- reply true (1)

-- ask Lab note: normalized growth threshold 1. Does this compound come in strictly under it? CN(C)C=Nc1nnc(SCc2ccc(C(=O)Oc3ccc(F)cc3F)cc2)s1
-- reply true (1)

-- ask State whether 1 exceeds normalized growth recorded for Cc1onc(-c2ccc(Cl)cc2)c1-c1ccnn1C(=O)NC(C)C .
-- reply true (1)
